# TEST_SYSTEM: Jak2 (UniProt O60674)
# Sequence (O60674 whole entry, looked up): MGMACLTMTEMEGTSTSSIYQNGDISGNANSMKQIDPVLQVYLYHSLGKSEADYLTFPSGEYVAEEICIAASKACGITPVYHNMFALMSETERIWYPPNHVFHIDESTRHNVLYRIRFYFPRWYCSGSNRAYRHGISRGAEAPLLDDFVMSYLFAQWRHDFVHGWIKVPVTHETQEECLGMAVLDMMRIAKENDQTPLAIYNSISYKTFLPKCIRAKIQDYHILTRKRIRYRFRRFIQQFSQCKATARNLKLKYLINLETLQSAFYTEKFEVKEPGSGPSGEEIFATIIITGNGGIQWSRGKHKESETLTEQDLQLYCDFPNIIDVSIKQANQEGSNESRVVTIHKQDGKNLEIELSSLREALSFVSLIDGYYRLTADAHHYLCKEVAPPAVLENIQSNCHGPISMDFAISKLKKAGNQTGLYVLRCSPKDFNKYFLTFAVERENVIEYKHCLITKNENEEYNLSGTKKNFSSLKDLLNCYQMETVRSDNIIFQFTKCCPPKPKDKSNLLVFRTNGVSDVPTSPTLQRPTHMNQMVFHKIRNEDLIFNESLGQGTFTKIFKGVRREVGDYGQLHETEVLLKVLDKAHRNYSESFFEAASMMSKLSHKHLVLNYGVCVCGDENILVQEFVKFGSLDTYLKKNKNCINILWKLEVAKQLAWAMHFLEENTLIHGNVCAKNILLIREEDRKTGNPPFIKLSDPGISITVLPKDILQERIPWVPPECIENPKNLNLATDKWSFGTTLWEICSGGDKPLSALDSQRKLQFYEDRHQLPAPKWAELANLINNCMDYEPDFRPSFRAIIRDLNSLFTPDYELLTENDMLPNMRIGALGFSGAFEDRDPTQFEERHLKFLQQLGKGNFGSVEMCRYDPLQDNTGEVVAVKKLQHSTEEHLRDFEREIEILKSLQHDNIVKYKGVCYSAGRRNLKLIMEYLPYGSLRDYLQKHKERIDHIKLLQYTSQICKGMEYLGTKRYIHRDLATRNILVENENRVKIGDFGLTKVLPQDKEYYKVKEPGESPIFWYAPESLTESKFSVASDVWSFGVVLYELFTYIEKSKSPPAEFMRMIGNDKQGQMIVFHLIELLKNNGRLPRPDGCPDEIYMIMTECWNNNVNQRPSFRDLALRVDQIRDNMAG
# METHOD: phosphorylation enrichment, bacterial display (enrichment ratio); higher = better substrate or ligand; peptides without Tyr show the background;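 also: 11-residue human phosphosite peptides and single-mutation variants displayed on the E. coli surface, counted by deep sequencing, each peptide's frequency after selection divided by its frequency in the unselected input library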;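 also: frequency after pTyr selection over input frequency; kinase dosed for 20-30% of maximal phosphorylation in three min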
Please use the following phosphorylation enrichment ranges when assigning a class: range 1 (below 0.7), range 2 (0.7 to below 1), range 3 (1 or more)

| CHAIN | GROUP |
| --- | --- |
| AFDNLYFWDQD [ERBB2_Y1221_YF] | range 3 |
| EDGCIYPGTIA [SMN1_Y109_A111G] | range 3 |
| RMETAYGPSVT [MXRA5_Y2717_E2716A] | range 1 |
| SHMVDYQPFRK [TEX37_Y25_YF] | range 3 |
| KNDSNYVVKGN [KIT_Y823] | range 1 |
| DRLAVYIDRVS [LMNA_Y45_R50S] | range 2 |
| NAGDYYDLYGG [PTPN11_Y63_T59A] | range 3 |
| ERPIRYLNHQL [CEP152_Y268_Q265P] | range 1 |
| FPILNYKDIRK [CFAP221_Y798_M795I] | range 2 |
| EIRTQDEAMAS [GFAP_Y242_Y242D] | range 2 |
| GISDEYHVIRH [GCDH_Y398] | range 1 |
| EYGSGYPNDPK [RNASEH2A_Y210_D205E] | range 1 |
| IVAEFYDNLPH [DEGS1_Y284_A280V_YF] | range 2 |
| QSSALYEDHYL [ASS1_Y83_R86H] | range 3 |
| RPLVVYPWTQR [HBB_Y36_L32P] | range 1 |
| DFKIIYIAPMR [SNRNP200_Y540] | range 3 |
| ENRKYYMDLKE [PURA_Y156] | range 2 |
| MKGDYYRYLAE [YWHAG_Y131] | range 3 |
| RIPFRYPKEFQ [IDS_Y234_H229R] | range 3 |
| IEDNKYTAREG [HCK_Y411_E410K] | range 2 |
| GGFNNYGFGND [HNRNPH3_Y159_YF] | range 1 |
| RLYARYFQGDL [PDK3_Y337] | range 3 |
| HLVLNYGVCIC [JAK2_Y613_V617I] | range 3 |
| ASKEPYYVRCI [MYO1D_Y585] | range 3 |
| RLDRSYSYSYS [PEAR1_Y890] | range 1 |
| TEAEPYFCSLR [NPHS1_Y1138_R1140C_YF] | range 3 |
| AFLGEYIPTVF [RAC2_Y32_P29L] | range 3 |
| IPGRYYETGSI [PAX2_Y73_L69P] | range 1 |
| LQLLGDRPVFS [CHST6_Y358_Y358D_YF] | range 1 |

* * *

# TEST_SYSTEM: Fes (UniProt P07332)
# Sequence (P07332 whole entry, looked up): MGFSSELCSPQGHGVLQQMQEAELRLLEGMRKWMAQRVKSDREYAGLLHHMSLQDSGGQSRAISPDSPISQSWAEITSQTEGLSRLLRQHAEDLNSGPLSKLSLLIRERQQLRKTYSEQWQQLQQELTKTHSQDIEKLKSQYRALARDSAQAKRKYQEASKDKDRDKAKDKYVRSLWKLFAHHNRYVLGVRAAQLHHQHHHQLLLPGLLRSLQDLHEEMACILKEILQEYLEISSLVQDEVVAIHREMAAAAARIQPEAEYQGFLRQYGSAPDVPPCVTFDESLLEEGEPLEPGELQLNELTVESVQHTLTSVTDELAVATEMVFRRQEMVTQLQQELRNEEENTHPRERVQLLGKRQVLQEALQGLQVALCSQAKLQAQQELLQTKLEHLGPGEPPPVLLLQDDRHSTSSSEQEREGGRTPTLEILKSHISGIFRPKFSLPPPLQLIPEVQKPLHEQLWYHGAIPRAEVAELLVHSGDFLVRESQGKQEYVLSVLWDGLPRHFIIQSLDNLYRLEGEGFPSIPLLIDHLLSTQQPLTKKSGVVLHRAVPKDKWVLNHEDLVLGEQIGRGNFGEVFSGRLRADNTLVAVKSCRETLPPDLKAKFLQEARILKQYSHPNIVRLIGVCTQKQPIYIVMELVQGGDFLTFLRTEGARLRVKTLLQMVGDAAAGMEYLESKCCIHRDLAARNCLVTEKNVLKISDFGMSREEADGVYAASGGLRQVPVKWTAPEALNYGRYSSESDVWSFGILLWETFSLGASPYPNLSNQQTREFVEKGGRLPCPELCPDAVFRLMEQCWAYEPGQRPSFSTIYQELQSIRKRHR
# METHOD: phosphorylation enrichment, bacterial display (enrichment ratio); higher = better substrate or ligand; peptides without Tyr show the background
Note to self: values exactly at 0.8 are y. So phosphorylation enrichment at or above 0.8 is y, below is n.

| CHAIN | TEST_SYSTEM | GROUP |
| --- | --- | --- |
| IFLADCRIMEG [ALOX12B_Y318_Y318C_YF] | Fes (UniProt P07332) | y |
| QRAADYYSQQM [GBP6_Y333] | Fes (UniProt P07332) | y |
| TLAHKYHGGGG [HBB_Y146_A141T] | Fes (UniProt P07332) | y |
| GNHVSYYQSDG [CACNA1C_Y1757] | Fes (UniProt P07332) | n |
| NSRYTCKLEVK [USH2A_Y3747_Y3747C] | Fes (UniProt P07332) | y |
| VRSVDYVLFRS [FAM189B_Y361] | Fes (UniProt P07332) | y |
| YGLQAYTKVKT [ALDH2_Y502_E504K] | Fes (UniProt P07332) | y |
| MFNPMYALFRT [HUWE1_Y4078] | Fes (UniProt P07332) | y |
| PKEQKYSFLQD [GH1_Y68_N73D] | Fes (UniProt P07332) | y |
| SSEFHYVGGFF [CTSC_Y347_YF] | Fes (UniProt P07332) | y |
| KANEYYPVVII [ADAMTS18_Y765_L769I] | Fes (UniProt P07332) | y |
| KEEEDYREENN [BMS1_Y651_K652R] | Fes (UniProt P07332) | y |
| LIHLHYIRRDY [BBS4_Y43_K46R] | Fes (UniProt P07332) | n |
| FQKDVYNIPPS [NEDD9_Y177_D178N_YF] | Fes (UniProt P07332) | n |
| SSSGGYGGGYG [KRT19_Y61_A60G] | Fes (UniProt P07332) | n |
| APGDAYGDAGF [SYP_Y250_YF] | Fes (UniProt P07332) | y |
| TPIYPYLLPKS [PLD2_Y580_T577I] | Fes (UniProt P07332) | n |
| KGPNVYKKTVN [REV3L_Y1156] | Fes (UniProt P07332) | n |
| ASYGPYTRVQS [FOXL2_Y258] | Fes (UniProt P07332) | n |
| DRLASNLDKVR [KRT10_Y160_Y160N] | Fes (UniProt P07332) | n |
| HNLDFYKETTN [FGFR3_Y648_K650E_YF] | Fes (UniProt P07332) | y |
| DAKAIYDFTDT [PDK1_Y136] | Fes (UniProt P07332) | y |
| ETCLAYMEKRI [TEKT1_Y118_R119M] | Fes (UniProt P07332) | y |
| PRARTYCFKQE [KLHDC9_Y175_S171R_YF] | Fes (UniProt P07332) | n |
| NWGKKYPTCNS [PTPRZ1_Y53] | Fes (UniProt P07332) | y |
| VECRVYAEDPF [PCCA_Y401_YF] | Fes (UniProt P07332) | y |
| AIGFEYSEINI [SIGLEC12_Y588_YF] | Fes (UniProt P07332) | y |
| RARIRYAQEHD [NSD1_Y1987] | Fes (UniProt P07332) | y |
| LSVEIHDRREY [ITGB7_Y753_Y753H] | Fes (UniProt P07332) | y |
| VATRWYRSPEP [CDKL5_Y177_L182P] | Fes (UniProt P07332) | n |
| TRNVRYLTLDI [AKR1C2_Y305_N300T] | Fes (UniProt P07332) | y |
| QNVADYMRCLM [RPL5_Y207_Y210C] | Fes (UniProt P07332) | y |
| NAGDYYDLYGG [PTPN11_Y63_T59A] | Fes (UniProt P07332) | y |
| HLTLVYGGIFL [FBP1_Y259_R255L] | Fes (UniProt P07332) | y |
| FSAPNYCYRCG [PPP2CA_Y265] | Fes (UniProt P07332) | n |
| VRQQDYKKVEE [HADHA_Y283_V282D] | Fes (UniProt P07332) | n |
| KIPGRYFETGS [PAX2_Y72_L69P_YF] | Fes (UniProt P07332) | y |
| EYITRYIDSLK [PSMA7_Y110_A112D] | Fes (UniProt P07332) | y |
| FSCLPCGRLAY [SLC52A2_Y305_Y305C] | Fes (UniProt P07332) | n |
| EKMWSYTKSAE [GRIA3_Y705_M706T] | Fes (UniProt P07332) | n |
| LPEVSYVKAID [GLRA1_Y307_K304E] | Fes (UniProt P07332) | n |
| LFDPDYMKVIL [CYP4A22_Y104_YF] | Fes (UniProt P07332) | y |
| GQETSYIEDNC [PAH_Y24] | Fes (UniProt P07332) | y |
| KDKLPYLYDDP [GPX2_Y125_P126L] | Fes (UniProt P07332) | y |
| CYSSEYHYVGG [CTSC_Y345_Y340C] | Fes (UniProt P07332) | y |
| ALLVFYAATIA [SLC20A2_Y187_P184L] | Fes (UniProt P07332) | y |
| TTANRYLKVSD [MYOM2_Y871] | Fes (UniProt P07332) | n |
| SREALYNEMDP [CACNA1A_Y794] | Fes (UniProt P07332) | y |
| LLRFLYFFVCS [SLC34A2_Y109_G106R] | Fes (UniProt P07332) | y |
| EYLQKYKGFKI [SYNE1_Y6953] | Fes (UniProt P07332) | y |
| DRIVNYSRASI [ATP7A_Y1459] | Fes (UniProt P07332) | n |
| HFPFQCHRQLF [F12_Y53_Y53C_YF] | Fes (UniProt P07332) | y |
